- Tested on: estrogen synthesis
- assay-protocol: Estrogen synthesis inhibition in rats (uterine weight and ovarian steroid concentrations)
- Type: in vivo, female Wistar rats
- test-settings: 30 ppm in feed (approximately 3 mg/kg/day), ovaries
Where a name gives a salt, the structure may show the parent alone.
Hi there, I'd appreciate the recorded Mean Steroid Concentration, estradiol for every entry that follows.

[in] I have this molecule here, Clc1ccc(C(c2ccccc2)n2ccnc2)cc1 (stereo not drawn) , and I need its recorded Mean Steroid Concentration, estradiol.
[out] 0.92 femtomoles per milligram of protein

[in] I have this molecule here, O=[N+]([O-])c1ccc(Cn2ccnc2)cc1 [hydrochloride] , and I need its recorded Mean Steroid Concentration, estradiol.
[out] 1.16 femtomoles per milligram of protein

[in] I have this molecule here, `c1ccc(C(c2ccccc2)(c2ccncc2)n2ccnc2)cc1` , and I need its recorded Mean Steroid Concentration, estradiol.
[out] 0.78 femtomoles per milligram of protein

[in] I have this molecule here, `Clc1ccc(COc2ccccc2Cn2ccnc2)c(Cl)c1` , and I need its recorded Mean Steroid Concentration, estradiol.
[out] 1.16 femtomoles per milligram of protein

[in] I have this molecule here, `Clc1ccc(C(c2ccc(Cl)cc2)(c2cccnc2)n2cncn2)cc1` , and I need its recorded Mean Steroid Concentration, estradiol.
[out] 1.83 femtomoles per milligram of protein

[in] I have this molecule here, `C#CC(c1ccccc1)(c1ccccc1)n1ccnc1` , and I need its recorded Mean Steroid Concentration, estradiol.
[out] 1.05 femtomoles per milligram of protein
